- Tested On: orexin-1 (Homo sapiens (Human))
- Measurement Notes: Intracellular calcium measurement (FLIPR), CHO cells expressing human orexin-1 receptor, 3 nM orexin-A
- Format: cell-based
- Details: CHO cells expressing human orexin-1 receptor, FLIPR, 3 nM orexin-A; geometric mean if determined several times; read-out: IC50 OX1
- Procedure: In Vitro Assay: Intracellular Calcium Measurements: […] Within the Fluorescent Imaging Plate Reader (FLIPR Tetra, Molecular Devices), antagonists are added to the plate in a volume of 10 μL/well, incubated for 120 min and finally 10 μL/well of agonist is added. Fluorescence is measured for each well at 1 second intervals, and the height of each fluorescence peak is compared to the height of the fluorescence peak induced by 3 nM orexin-A with vehicle in place of antagonist. […]
pIC50: −log10 of the molar value.
Property: pIC50

>>> print(df.to_string())
                                smiles_code                        tested_on  property  measured_value
0  Cc1ccc(-n2nccn2)c(C(=O)N2CCC[C@H]2c2cc(-c3cccc(C)c3C)no2)c1  orexin-1 (Homo sapiens (Human))     pIC50            6.82
1  Cc1ncc(C(=O)N2CCC[C@H]2c2nc(-c3cccc(Cl)c3C)no2)c(-c2cccc(Cl)c2)n1  orexin-1 (Homo sapiens (Human))     pIC50            6.24
2  COc1ccc(-c2noc([C@@H]3CCCN3C(=O)c3cc(C)ccc3-n3nccn3)n2)cc1OC  orexin-1 (Homo sapiens (Human))     pIC50            6.06
3  Cc1ccc(-n2nccn2)c(C(=O)N2CCC[C@H]2c2nc(-c3ccccc3OC(F)(F)F)no2)c1F  orexin-1 (Homo sapiens (Human))     pIC50            7.72
4  COc1cc(C(=O)N2CCC[C@H]2c2nc(-c3cccc(Cl)c3C)no2)c(-n2nccn2)cc1C  orexin-1 (Homo sapiens (Human))     pIC50            7.52
5  Cc1ccc(-n2nccn2)c(C(=O)N2CCC[C@H]2c2nc(-c3ccccc3C)no2)c1  orexin-1 (Homo sapiens (Human))     pIC50            6.89
6  Cc1cc(-n2nccn2)c(C(=O)N2CCC[C@H]2c2nc(-c3ccccc3OC(F)(F)F)no2)cc1Cl  orexin-1 (Homo sapiens (Human))     pIC50            7.60

---

- Tested On: orexin-1 (Homo sapiens (Human), UniProt O43613)
- Sequence (O43613 whole entry): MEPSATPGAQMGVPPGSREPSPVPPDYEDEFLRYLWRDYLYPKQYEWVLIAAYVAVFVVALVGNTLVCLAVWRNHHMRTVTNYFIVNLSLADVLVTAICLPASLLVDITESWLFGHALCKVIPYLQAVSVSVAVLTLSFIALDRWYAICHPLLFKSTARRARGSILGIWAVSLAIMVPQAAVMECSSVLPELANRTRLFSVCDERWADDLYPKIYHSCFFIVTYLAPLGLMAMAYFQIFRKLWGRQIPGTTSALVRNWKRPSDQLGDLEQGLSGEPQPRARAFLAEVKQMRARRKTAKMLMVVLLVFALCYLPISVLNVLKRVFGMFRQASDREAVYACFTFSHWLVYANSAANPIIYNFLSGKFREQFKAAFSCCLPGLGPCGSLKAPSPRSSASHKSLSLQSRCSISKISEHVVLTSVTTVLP
- Measurement Notes: Intracellular calcium measurement (FLIPR), CHO cells expressing human orexin-1 receptor, 3 nM orexin-A
- Assay type: cell-based
- Details: CHO cells expressing human orexin-1 receptor, FLIPR, 3 nM orexin-A; geometric mean if determined several times; read-out: IC50 OX1
pIC50: −log10 of the molar value.
Lab note: anything with pIC50 at or over 7 counts as class 1; the rest go in class 0.

In [3]: df
Out[3]:
                                smiles_code  class_name
0  C[C@@]1(c2nc(-c3ccccc3)no2)CCCN1C(=O)c1ccccc1-n1nccn1     class 0
1  Cc1cc(-n2nccn2)c(C(=O)N2CCC[C@H]2c2nnc(-c3ccccc3OC(F)(F)F)[nH]2)cc1Cl     class 1
2  CCc1ccccc1-c1nc([C@@H]2CCCN2C(=O)c2cc(C)ccc2-n2nccn2)no1     class 1

All values here come from patent US9493446B2.
